# target-under-test: Ab-15
# Sequence (heavy, as listed by the source, chain 1 of 2): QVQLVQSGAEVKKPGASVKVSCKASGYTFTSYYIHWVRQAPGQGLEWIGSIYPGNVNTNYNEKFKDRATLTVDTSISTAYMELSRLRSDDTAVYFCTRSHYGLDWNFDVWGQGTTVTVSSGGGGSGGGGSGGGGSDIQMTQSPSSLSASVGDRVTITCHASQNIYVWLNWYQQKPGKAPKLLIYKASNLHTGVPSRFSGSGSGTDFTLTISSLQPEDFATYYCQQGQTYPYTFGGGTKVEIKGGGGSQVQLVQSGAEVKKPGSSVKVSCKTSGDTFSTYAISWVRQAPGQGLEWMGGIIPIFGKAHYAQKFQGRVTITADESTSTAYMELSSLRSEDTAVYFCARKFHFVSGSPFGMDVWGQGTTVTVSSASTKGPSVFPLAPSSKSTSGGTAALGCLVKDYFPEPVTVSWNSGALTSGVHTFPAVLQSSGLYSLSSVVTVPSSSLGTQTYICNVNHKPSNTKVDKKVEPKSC
# Sequence (light, as listed by the source, chain 2 of 2): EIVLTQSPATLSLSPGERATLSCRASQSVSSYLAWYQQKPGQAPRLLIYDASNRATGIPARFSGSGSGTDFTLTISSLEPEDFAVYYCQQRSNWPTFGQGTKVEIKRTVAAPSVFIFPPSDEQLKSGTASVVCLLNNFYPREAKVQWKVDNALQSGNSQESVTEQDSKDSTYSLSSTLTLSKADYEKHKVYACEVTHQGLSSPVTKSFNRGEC
# protocol-details: BLI (Octet): sensor loaded with 200 nM biotinylated peptide, 100 nM Ab-15;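 also: binding association and dissociation tracked in real time, fitted to a 1:1 binding model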
Where no end group is shown, it is not given here.
Mark Y for Octet signal under 1, N if at or over.

>>> assigned_class("LDWCPRDLWVHCFA (cysteine pairing not given here; also: biotinylated, site not given here, CD28 peptide mask) [Peptide-61]")
"N"
>>> assigned_class("QDWCPRDLWVHCFA (cysteine pairing not given here; also: biotinylated, site not given here, CD28 peptide mask) [Peptide-56]")
"N"
>>> assigned_class("YDWCPRDLWVHCFA (cysteine pairing not given here; also: biotinylated, site not given here, CD28 peptide mask) [Peptide-68]")
"Y"
>>> assigned_class("WDWCPRDLWVHCFA (cysteine pairing not given here; also: biotinylated, site not given here, CD28 peptide mask) [Peptide-67]")
"N"
>>> assigned_class("ADWCPRDLWVHCFA (cysteine pairing not given here; also: biotinylated, site not given here, CD28 peptide mask) [Peptide-52]")
"Y"
>>> assigned_class("GDWCPRDLWVHCFA (cysteine pairing not given here; also: biotinylated, site not given here, CD28 peptide mask) [Peptide-58]")
"Y"

Every entry's value here was drawn from patent US20260242478A1.
